system: EAAT2; assay: EAAT2 protein levels in PA-EAAT2 cells by Western blot; type: cell-based, human; settings: compared to compound 1, Table 4
Assay metric: Improvement of potency/activity compared to 1

{"Compound": "Clc1cccc(CSc2ccc(-c3ccccn3)nn2)c1", "Assayed target": "EAAT2", "Value observed": "two-fold"}
{"Compound": "Clc1ccccc1CSc1ccc(-c2ccccn2)nn1", "Assayed target": "EAAT2", "Value observed": "two-fold"}
{"Compound": "CC(Sc1ccc(-c2ccccn2)nn1)c1c(F)cccc1Cl (racemic)", "Assayed target": "EAAT2", "Value observed": "about 3 fold"}
{"Compound": "c1ccc(-c2ccc(SC3CCCc4ccccc43)nn2)nc1 (racemic)", "Assayed target": "EAAT2", "Value observed": "about 3 fold"}

INPUT: Name the recorded Improvement of potency/activity compared to 1 for Clc1cccc(Cl)c1CSc1ccc(-c2ccccn2)nn1 .
OUTPUT: two-fold

---

experiment: In vivo pharmacokinetic evaluation in male C57Bl/6 mice (LCMS/MS); parameters: species or system mouse; settings: male, C57Bl/6, mouse, brain, ip; single i.p. 3 mg/kg, estimated; read-out: Brain half-life (converted)
Assay metric: half-life (h)
Your answer should be a plain number; it is taken to be in h.

INPUT: Find the recorded half-life belonging to Cc1ccccc1CSc1ccc(-c2ccccn2)nn1 [Compound 7-4] and report it.
OUTPUT: 2.64

---

Known Fold increase for EAAT2, 4 h of a selection of compounds
System: EAAT2
Experiment: EAAT2 protein levels in PA-EAAT2 cells by Western blot
Type: cell-based, human
Details: compound 10 μM, 4 h incubation, PA-EAAT2 cells, relative to DMSO controls; na = not active
Protocol: All of the derivates of 1 were initially evaluated in PA-EAAT2 cells^3 (a primary astrocyte line stably expressing EAAT2 mRNAs) following compound (10 μM) incubation for 4 and 24 h before harvesting and measuring EAAT2 levels by Western blot analysis. […] Characterization and efficacy studies of a compound, Compound 212320 (FIG. 6A) is shown. […] To prioritize candidate compounds, we initially evaluated activation of EAAT2 protein in PA-EAAT2 cells. […]
# value in fold; strip the unit string

// worked examples, Fold increase for EAAT2, 4 h included
{"Compound": "Clc1cccc(CSc2ccc(-c3ccccn3)nn2)c1 [Compound 7-18]", "U": "fold", "Fold increase for EAAT2, 4 h": 2.1}
{"Compound": "Cc1ccccc1CS(=O)(=O)c1ccc(-c2ccccn2)nn1 [Compound 9-2]", "U": "fold", "Fold increase for EAAT2, 4 h": 2.3}
{"Compound": "Fc1ccccc1CSc1ccc(-c2ccccn2)nn1 [Compound 7-23]", "U": "fold", "Fold increase for EAAT2, 4 h": 2.2}
{"Compound": "Fc1ccc(CSc2ccc(-c3ccccn3)nn2)c(Cl)c1 [Compound 7-35]", "U": "fold", "Fold increase for EAAT2, 4 h": 1.6}
{"Compound": "Fc1cc(F)c(CSc2ccc(-c3ccccn3)nn2)c(F)c1 [Compound 7-26]", "U": "fold", "Fold increase for EAAT2, 4 h": 1.6}
{"Compound": "Cc1ccccc1CNc1ccc(-c2ccccn2)nn1 [Compound 14]", "U": "fold", "Fold increase for EAAT2, 4 h": 1.7}

INPUT: Quick one: Fold increase for EAAT2, 4 h for Cc1ccccc1COc1ccc(-c2ccccn2)nn1 [Compound 8-1] ?
OUTPUT: 2.0

INPUT: What would you report for O=S(=O)(Cc1c(F)cccc1Cl)c1ccc(-c2ccccn2)nn1 [Compound 9-1] ?
OUTPUT: 1.4

INPUT: What would you report for Cc1ccccc1CSc1ccc(-c2cccnc2)nn1 [Compound 7-5] ?
OUTPUT: 1.5

INPUT: Same again, this time with Cc1cc(C)c(CSc2ccc(-c3ccccn3)nn2)c(C)c1 [Compound 7-30]
OUTPUT: 1.7

---

tested on: EAAT2; experiment: EAAT2 protein levels in PA-EAAT2 cells by Western blot; type: cell-based, human; conditions: relative to parent/comparator analogue, Tables 1-4
Assay metric: SAR comparison of activity on EAAT2 protein levels, in words

{"Sample smiles": "Cc1ccccc1CS(=O)(=O)c1ccc(-c2ccccn2)nn1", "Value observed": "detrimental"}
{"Sample smiles": "Fc1cccc(Cl)c1CSc1ccc(-c2ccncc2)nn1", "Value observed": "reduced activity"}
{"Sample smiles": "Clc1ccccc1CSc1ccc(-c2cccnc2)nn1", "Value observed": "reduced activity"}
{"Sample smiles": "Cc1ccc(CSc2ccc(-c3ccccn3)nn2)c(C)c1", "Value observed": "increased potency"}
{"Sample smiles": "Cc1ccccc1CSc1ccc(-c2cccnc2)nn1", "Value observed": "reduced activity"}
{"Sample smiles": "Cc1cc(C)c(CSc2ccc(-c3ccccn3)nn2)c(C)c1", "Value observed": "increased potency"}
{"Sample smiles": "Clc1ccccc1CSc1ccc(-c2ccncc2)nn1", "Value observed": "reduced activity"}
{"Sample smiles": "Cc1cccc(CSc2ccc(-c3ccccn3)nn2)c1", "Value observed": "less potent"}
{"Sample smiles": "Cc1ccc(CSc2ccc(-c3ccncc3)nn2)cc1", "Value observed": "reduced activity"}
{"Sample smiles": "Cc1ccc(CSc2ccc(-c3ccccn3)nn2)cc1", "Value observed": "less potent"}

INPUT: Find the recorded SAR comparison of activity on EAAT2 protein levels, in words belonging to O=S(=O)(Cc1ccccc1Cl)c1ccc(-c2ccccn2)nn1 and report it.
OUTPUT: detrimental

INPUT: Repeat with Fc1cccc(Cl)c1CSc1ccc(-c2cccnc2)nn1
OUTPUT: reduced activity

---

# key: entry, value: Fold increase for EAAT2, 4 h
tested on: EAAT2; assay: EAAT2 protein levels in PA-EAAT2 cells by Western blot; assay type: cell-based, human; conditions: compound 10 μM, 4 h incubation, PA-EAAT2 cells, relative to DMSO controls; na = not active
// units = fold; emit number, no label

Recorded Fold increase for EAAT2, 4 h, per entry:
{"Compound": "Fc1ccc(CSc2ccc(-c3ccccn3)nn2)c(F)c1 [Compound 7-16]", "Assayed target": "EAAT2", "Fold increase for EAAT2, 4 h / fold": 2.4}
{"Compound": "Clc1ccc(CSc2ccc(-c3ccccn3)nn2)c(Cl)c1 [Compound 7-21]", "Assayed target": "EAAT2", "Fold increase for EAAT2, 4 h / fold": 1.8}
{"Compound": "Clc1ccccc1CSc1ccc(-c2ccncc2)nn1 [Compound 7-9]", "Assayed target": "EAAT2", "Fold increase for EAAT2, 4 h / fold": 1.5}
{"Compound": "Cc1cccc(C)c1COc1ccc(-c2ccccn2)nn1 [Compound 8-3]", "Assayed target": "EAAT2", "Fold increase for EAAT2, 4 h / fold": 2.1}

INPUT: GET /values?readout=Fold increase for EAAT2, 4 h&item= Fc1cccc(Cl)c1COc1ccc(-c2ccccn2)nn1 [Compound 8-2]
OUTPUT: 1.1

INPUT: Follow-up entry: Clc1ccccc1CSc1ccc(-c2cccnc2)nn1 [Compound 7-8]
OUTPUT: 1.2

INPUT: Now consider CC(Sc1ccc(-c2ccccn2)nn1)c1c(F)cccc1Cl (racemic) [Compound 7-14] and answer again.
OUTPUT: 1.7

---

test system: EAAT2; experiment: EAAT2 protein levels in PA-EAAT2 cells by Western blot; assay type: cell-based, human; conditions: relative to parent/comparator analogue, Tables 1-4
Assay metric: SAR comparison of activity on EAAT2 protein levels, in words

{"Compound": "Cc1ccccc1CSc1ccc(-c2ccccn2)nn1 [Compound 7-4]", "Value observed": "increased potency"}
{"Compound": "Cc1cccc(C)c1CSc1ccc(-c2ccccn2)nn1 [Compound 7-13]", "Value observed": "increased potency"}
{"Compound": "Clc1ccc(Cl)c(CSc2ccc(-c3ccccn3)nn2)c1 [Compound 7-20]", "Value observed": "equivalent to 1"}
{"Compound": "Clc1ccc(CSc2ccc(-c3ccccn3)nn2)c(Cl)c1 [Compound 7-21]", "Value observed": "equivalent to 1"}

---

Assay: In vivo pharmacokinetic evaluation in male C57Bl/6 mice (LCMS/MS)
Parameters: species or system mouse
Details: mouse, in vivo, ip; single i.p. 3 mg/kg, male C57Bl/6 mice
Description: Compound 212320 is compliant with Lipinski rules and lacks functionality that would predict overt toxicity or reactivity. This compound has a low molecular weight (293.38), cLogP value (3.28) and polar surface area (PSA) value (37.08 Å2) in the range typical of compounds that can penetrate the blood brain barrier. […] After a single intraperitoneal (i.p.) administration of Compound 212320 (3 mg/kg), the plasma and brain concentrations were determined over an 8 hr period by LCMS/MS (FIG. 8A). […]
Assay metric: Cmax (ng/mL)
Number in ng/mL, nothing else.

INPUT: GET /values?readout=Cmax&item= Cc1ccccc1CSc1ccc(-c2ccccn2)nn1
OUTPUT: 42.1

---

test: Maximum tolerated dose / tolerability study; assay type: in vivo; details: male, C57BL/6, mouse, in vivo, ip; five-day repeat-dose i.p., highest dose tested; read-out: 5-day no observed adverse effect level (NOAEL)
Assay metric: NOAEL at 5 day (mg/kg/day)
Hi! Could you send only the number? It should be in mg/kg/day, unit omitted.

INPUT: For the molecule Cc1ccccc1CSc1ccc(-c2ccccn2)nn1 [Compound 7-4] , what NOAEL at 5 day is on record?
OUTPUT: 100

Source: patent US9447075B2
